Tested on: P. aeruginosa rhl AHL-mediated pathway (PrhlA-lacZ reporter)
Experiment: Anti-quorum sensing β-galactosidase assay, rhl biomonitor (PrhlA-lacZ with rhlR expressed in E. coli)
Format: cell-based, Pseudomonas aeruginosa
Conditions: Escherichia coli, 4 h, read-out: Percent Activity ± Standard Deviation (PrhlA-lacZ expression relative to DMSO treated control)
Protocol: The conditions for the rhl biomonitor Escherichia coli DH5α harboring pECP61.5 plasmid, which contains Ptac-rhlR and PrhlA-lacZ (4), were essentially same except that the LB medium was only supplemented with ampillicin (100 μg/ml), the O/N culture was diluted to an OD600 of 0.150, induced with 1 mM IPTG, 2 μM C4—HSL and the compounds or the controls added when the OD600 reached 1.0. […] Miller units were calculated as described (29). […]
MEASURED QUANTITY: activity at 150 µg/mL (%)
Quick reminder: number only, in %, skip the unit.

Would you mind telling me what activity at 150 µg/mL value was observed for CCCCCCCCCSCC1CCC(=O)N1 (stereo not shown) [Compound 7c, 5-(Nonylthiomethyl)pyrrolidin-2-one] ?
108

Would you mind telling me what activity at 150 µg/mL value was observed for CCCCCCCCCSCC1NC(=O)C(O)C1O (stereo not shown) [Compound 17] ?
115

Would you mind telling me what activity at 150 µg/mL value was observed for CCCCCCCCCSCC1CCC(O)N1 (stereo not shown) [Compound 10c, 5-(Nonanylthiomethyl)pyrrolidin-2-ol] ?
100

Would you mind telling me what activity at 150 µg/mL value was observed for CCCCCCSCC1CCC(=O)N1 (stereo not shown) [Compound 7b, 5-(Hexylthiomethyl)pyrrolidin-2-one] ?
130

The reported measurements were obtained from patent US9249095B2.
